SUBJECT OF TEST: Proteasome subunit beta (Trypanosoma cruzi) (UniProt O96673)
Sequence (whole entry): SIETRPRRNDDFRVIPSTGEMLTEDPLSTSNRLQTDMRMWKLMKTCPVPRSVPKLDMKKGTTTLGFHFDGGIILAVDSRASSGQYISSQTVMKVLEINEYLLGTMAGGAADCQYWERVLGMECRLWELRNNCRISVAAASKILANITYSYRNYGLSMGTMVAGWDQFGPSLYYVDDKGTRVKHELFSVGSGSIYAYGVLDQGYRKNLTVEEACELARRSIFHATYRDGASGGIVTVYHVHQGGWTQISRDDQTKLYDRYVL
ASSAY DETAILS: Trypanosoma cruzi proteasome chymotrypsin-like activity (TcProtChymo) assay. Note: in the data most compounds retested in dose-response had high values.
Type: functional
Set-up: scale not given: direction of the effect not stated beside the values
RUN CONDITIONS: 9.37 µM
OBSERVATION TYPE: Percent Effect (%)
A number alone suffices; assume %.

Cc1nn(C)c(N(C)C)c1CNCC(O)COc1ccccc1 (configuration not stated) has a reported Percent Effect of 17.4

Per the record, COCc1ncc(CN2CCC(Oc3ccccc3OC)CC2)cn1 has Percent Effect of 9.59

Sure, the documented Percent Effect for COC[C@@]12CCO[C@@H]1CCN(C(=O)COc1ccccc1OC)C2 is 17.2

// recorded Percent Effect for Cc1ccccc1N1CCN(C(=O)c2ccc[nH]2)C(C)C1 (configuration not stated) : 9.25

response.value for Cc1cccc(CS(=O)(=O)CC(=O)NCCCOC(C)C)c1 (field: Percent Effect) = 4.05

The compound listed as Cc1cccc(OCCC(=O)N2CCCN(CC(N)=O)CC2)c1C shows Percent Effect equal to 4.34

Lab book: Percent Effect of CN1CCOC(CNC(=O)CCCOCCc2ccccc2)C1 (configuration not stated) noted as 9.13

Just so you know, measured Percent Effect for Cc1ncccc1O[C@H]1CCN(C(=O)c2cccs2)CC[C@@H]1O came out at 2.03

Summary for this compound, CC(NC(=O)NCCCn1ccnc1)c1ccc2c(c1)OCCCO2 (configuration not stated) : Percent Effect is -0.539

Per the record, O=C(O)c1cc(-c2cccnc2)cc(S(=O)(=O)N2CCCCCC2)c1 has Percent Effect of 12.7

Lab note: measured Percent Effect of O=C(NCC1(N2CCOCC2)CCSC1)Nc1ccc(F)cc1 (configuration not stated) was 17.9

response.value for CCC1c2ccsc2CCN1C(=O)NCCNc1ncccn1 (configuration not stated) (field: Percent Effect) = 9.3

###

System: Trypanosoma cruzi
ASSAY DETAILS: Trypanosoma cruzi phosphomannomutase and mannose-1-phosphate guanylyltransferase assay
Type: functional
Parameters: scale not given: direction of the effect not stated beside the values
RUN CONDITIONS: 10 µM
OBSERVATION TYPE: Percent Effect (%)
Hi! Could you send only the number? It should be in %, unit omitted.

For CN(CCC(F)(F)F)C(=O)[C@H]1CSCN1C(=O)OC(C)(C)C the molecule record lists Percent Effect as 8.03

Summary for this molecule, N#Cc1ccc(OCCOc2ccccc2C(=O)N2CCOCC2)cc1 : Percent Effect is 1.28

Form: molecule = COCC1CCN(C(=O)c2cccc(S(=O)(=O)NC3CCCC3)c2)C1 (configuration not stated) ; Percent Effect = 1.66

Record CN(CCn1nc2ccccn2c1=O)CC(=O)NC1CC1 , field Percent Effect: -2.63

Data point: CCn1ncc(Br)c1CN(C)S(=O)(=O)c1ccc(C)cc1 ; Percent Effect = 3.35

Measured Percent Effect of COc1c(CNC2CCSc3ccc(F)cc32)c(C)nn1C (configuration not stated) : -0.373

Query CCS(=O)(=O)c1ccccc1N1CCC(NC(C)=O)CC1 yields Percent Effect of -5.11

Lookup result for COc1ccccc1OCC(=O)NS(=O)(=O)c1ccccc1Br ; measured Percent Effect: 5.78

The reported Percent Effect of the molecule COCc1nc2cc(NCc3ccncc3)ccc2o1 was -1.76

# molecule CC(C)NC(=O)[C@H]1C[C@@H]2[C@@H](C1)OCCN2Cc1cnn(C)c1 ; its Percent Effect = -5.6

Reported Percent Effect ( Cc1cnccc1CN1C[C@@H](O)[C@H](Oc2ccccc2)C1 ) = 0.593

Per the record, Cc1nc(C)n(CC2CCCN2Cc2cscn2)n1 (configuration not stated) has Percent Effect of 2.64
